System: V79 cells
Assay: Nuclear γH2AX foci and pan-staining (immunocytochemistry)
Type: cell-based, hamster
Settings: 50 µM, 24 h, V79
reported.endpoint: > 5 < 30 Foci [%] (%)
Report the figure in % without appending any unit label.

Example entries begin here.
O=C(CCCCCCC(=O)Nc1ccccc1)NO [Vorinostat, vorinostat, reference compound]	34.2
Nc1ccc(F)cc1NC(=O)c1ccc(CONC(=O)C=Cc2cccnc2)cc1 [MPK77]	41.5
Nc1ccccc1NC(=O)c1ccc(CNC(=O)OCc2cccnc2)cc1 [Entinostat, entinostat, reference compound]	39.4

Note: attention shifts to another entry.
In: Using the record for CN(C)c1ccc(C(=O)N(CC(=O)NCc2ccccc2)Cc2ccc(C(=O)NO)cc2)cc1 [DDK137] , state its measured > 5 < 30 Foci [%].
Out: 36.8
